# EXPERIMENTAL SYSTEM: MIF-CD74 binding (Homo sapiens, UniProt P14174)
# Sequence (P14174 2-115 limits assumed): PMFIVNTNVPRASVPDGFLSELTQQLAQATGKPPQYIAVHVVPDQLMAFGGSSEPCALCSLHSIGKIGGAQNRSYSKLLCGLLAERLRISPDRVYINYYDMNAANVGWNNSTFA
Reported values of IC50 for individual entries

See these solved cases before continuing.
// COc1cccc(Cc2cn(-c3ccc(O)cc3)nn2)c1OC [4i] : IC50 value = > 1000 µM

Documented IC50 of COC(=O)c1cccc(Cn2cc(-c3ccc(O)cc3)nn2)c1 [3h] : ~1 µM

Looking up COc1ccc(Cn2cc(-c3ccc(O)cc3)nn2)cc1 [3f] , I see its IC50 listed as > 1000 µM

Next:
Sure, the documented IC50 for COc1cccc(Cn2cc(-c3ccc(O)cc3)nn2)c1OC [3g] is ~1 µM

Lookup result for Cc1cccc(Cn2cc(-c3ccc(O)cc3)nn2)c1 [3c] ; measured IC50: > 1000 µM

The molecule O=C(O)c1cccc(Cn2cc(-c3ccc(O)cc3)nn2)c1 [3i] showed IC50 equal to > 1000 µM

Memo: Oc1ccc(-n2cc(Cc3cccc(O)c3)nn2)cc1 [4d] , reported IC50: > 1000 µM

Per the record, Oc1ccc(-n2cc(-c3cccc4ccccc34)nn2)cc1 [5b] has IC50 of > 1000 µM

So, Oc1ccc(-c2cn(Cc3ccccc3)nn2)cc1 [3a] ? Its IC50 was > 1000 µM

Looking up Cc1ccccc1Cn1cc(-c2ccc(O)cc2)nn1 [3b] , I see its IC50 listed as > 1000 µM
